Origin of values: patent US10766902B2

- subject.of.test: Wee-1 kinase (Homo sapiens (Human), UniProt P30291)
- Sequence (P30291 whole entry): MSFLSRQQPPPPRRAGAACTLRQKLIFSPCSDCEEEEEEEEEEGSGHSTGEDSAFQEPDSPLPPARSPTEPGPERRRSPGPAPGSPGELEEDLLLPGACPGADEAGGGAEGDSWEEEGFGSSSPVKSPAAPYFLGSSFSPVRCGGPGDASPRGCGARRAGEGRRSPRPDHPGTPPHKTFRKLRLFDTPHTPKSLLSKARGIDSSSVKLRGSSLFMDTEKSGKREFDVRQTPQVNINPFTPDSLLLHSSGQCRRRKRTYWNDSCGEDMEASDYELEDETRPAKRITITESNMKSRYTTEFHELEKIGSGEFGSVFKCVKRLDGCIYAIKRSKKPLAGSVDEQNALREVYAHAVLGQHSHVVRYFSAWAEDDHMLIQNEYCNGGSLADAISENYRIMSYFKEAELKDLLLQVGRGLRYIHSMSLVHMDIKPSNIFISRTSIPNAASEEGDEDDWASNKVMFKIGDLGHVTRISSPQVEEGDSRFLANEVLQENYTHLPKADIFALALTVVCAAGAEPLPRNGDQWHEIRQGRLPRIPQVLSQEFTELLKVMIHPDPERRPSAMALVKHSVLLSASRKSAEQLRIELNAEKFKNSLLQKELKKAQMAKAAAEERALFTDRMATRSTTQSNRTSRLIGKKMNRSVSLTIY
- test.summary: Measurement of Wee-1 kinase activity (ADP-Glo luminescence)
- Type: biochemical
- experimental.context: read-out: Wee1 IC50
Recorded measurements of IC50, one per entry

# compound, subject.of.test, IC50
data = [
    ("C=CCn1c(=O)c2cnc(Nc3ccc(N4CCOCC4)c(C)c3)nc2n1-c1cccc(N=S(C)(C)=O)n1 [Example 21]", "Wee-1 kinase (Homo sapiens (Human), UniProt P30291)", "0.1 nM"),
    ("CC(C)n1c(=O)c2cnc(Nc3ccc(F)cc3)nc2n1-c1cccc(N=S2(=O)CCCC2)n1 [Example 55]", "Wee-1 kinase (Homo sapiens (Human), UniProt P30291)", "13.3 nM"),
    ("C=CCn1c(=O)c2cnc(Nc3ccc(N4CCO[C@H](COC)C4)cc3)nc2n1-c1cncc(N=S(C)(C)=O)n1 [Example 74]", "Wee-1 kinase (Homo sapiens (Human), UniProt P30291)", "0.3 nM"),
    ("CC(C)n1c(=O)c2cnc(Nc3cnn(C)c3)nc2n1-c1cccc(N=S2(=O)CCCC2)n1 [Example 56]", "Wee-1 kinase (Homo sapiens (Human), UniProt P30291)", "18.5 nM"),
    ("C=CCn1c(=O)c2cnc(Nc3ccc(Cl)cc3)nc2n1-c1cccc(N=S(C)(C)=O)n1 [Example 62]", "Wee-1 kinase (Homo sapiens (Human), UniProt P30291)", "0.3 nM"),
    ("C=CCn1c(=O)c2cnc(Nc3cnn(C)c3)nc2n1-c1cccc(N=S(C)(C)=O)n1 [Example 37]", "Wee-1 kinase (Homo sapiens (Human), UniProt P30291)", "1.3 nM"),
    ("C=CCn1c(=O)c2cnc(Nc3ccc(N4CCN[C@H](C)C4)cc3)nc2n1-c1cccc(N=S(C)(C)=O)n1 [Example 9]", "Wee-1 kinase (Homo sapiens (Human), UniProt P30291)", "1.5 nM"),
    ("C=CCn1c(=O)c2cnc(Nc3ccc(N4C[C@@H](C)N[C@@H](C)C4)cc3)nc2n1-c1cccc(N=S(C)(C)=O)n1 [Example 17]", "Wee-1 kinase (Homo sapiens (Human), UniProt P30291)", "1.1 nM"),
    ("C=CCn1c(=O)c2cnc(Nc3cc(F)cc(F)c3)nc2n1-c1cccc(N=S(C)(C)=O)n1 [Example 84]", "Wee-1 kinase (Homo sapiens (Human), UniProt P30291)", "1 nM"),
    ("C=CCn1c(=O)c2cnc(Nc3ccc(N4CCN(C)CC4)cc3)nc2n1-c1cccc(N=S(C)(C)=O)c1 [Example 16]", "Wee-1 kinase (Homo sapiens (Human), UniProt P30291)", "1 nM"),
    ("C=CCn1c(=O)c2cnc(Nc3ccc(N4CCOCC4)c(CNC)c3)nc2n1-c1cccc(N=S(C)(C)=O)c1 [Example 22]", "Wee-1 kinase (Homo sapiens (Human), UniProt P30291)", "2.6 nM"),
    ("C=CCn1c(=O)c2cnc(Nc3ccc(N4CCN(C)CC4)cc3)nc2n1-c1cccc(N=S(C)(C)=O)n1 [Example 5]", "Wee-1 kinase (Homo sapiens (Human), UniProt P30291)", "1.2 nM"),
    ("CC(C)n1c(=O)c2cnc(Nc3ccc(Cl)cc3)nc2n1-c1cccc(N=S(C)(C)=O)n1 [Example 61]", "Wee-1 kinase (Homo sapiens (Human), UniProt P30291)", "0.6 nM"),
    ("CCCn1c(=O)c2cnc(Nc3ccc(N4CCOCC4)cc3)nc2n1-c1cccc(N=S(C)(C)=O)n1 [Example 38]", "Wee-1 kinase (Homo sapiens (Human), UniProt P30291)", "0.8 nM"),
    ("C=CCn1c(=O)c2cnc(Nc3ccc(N4CCOCC4)cc3)nc2n1-c1cncc(N=S(C)(C)=O)c1 [Example 44]", "Wee-1 kinase (Homo sapiens (Human), UniProt P30291)", "20.3 nM"),
    ("C=CCn1c(=O)c2cnc(Nc3ccc(F)cc3)nc2n1-c1cccc(N=S(C)(C)=O)n1 [Example 40]", "Wee-1 kinase (Homo sapiens (Human), UniProt P30291)", "0.2 nM"),
    ("C=CCn1c(=O)c2cnc(Nc3ccc(C4CCN(C5CCC5)CC4)c(C)c3)nc2n1-c1cccc(N=S(C)(C)=O)n1 [Example 88]", "Wee-1 kinase (Homo sapiens (Human), UniProt P30291)", "0.4 nM"),
    ("C=CCn1c(=O)c2cnc(Nc3ccc(C(C)(C)C)cc3)nc2n1-c1cccc(N=S(C)(C)=O)n1 [Example 64]", "Wee-1 kinase (Homo sapiens (Human), UniProt P30291)", "1.6 nM"),
    ("C=CCn1c(=O)c2cnc(Nc3ccc(F)c(F)c3)nc2n1-c1cccc(N=S(C)(C)=O)n1 [Example 66]", "Wee-1 kinase (Homo sapiens (Human), UniProt P30291)", "0.5 nM"),
    ("C=CCn1c(=O)c2cnc(Nc3ccc(N(C)C)c(C(O)C(F)(F)F)c3)nc2n1-c1cccc(N=S(C)(C)=O)n1 (racemic) [Example 83]", "Wee-1 kinase (Homo sapiens (Human), UniProt P30291)", "0.4 nM"),
    ("C=CCn1c(=O)c2cnc(Nc3ccc(N4C[C@H]5COC[C@H]5C4)cc3)nc2n1-c1cccc(N=S(C)(C)=O)n1 [Example 67]", "Wee-1 kinase (Homo sapiens (Human), UniProt P30291)", "0.1 nM"),
    ("CCCn1c(=O)c2cnc(Nc3ccc(N4CCOCC4)nc3)nc2n1-c1cccc(N=S(C)(C)=O)n1 [Example 39]", "Wee-1 kinase (Homo sapiens (Human), UniProt P30291)", "1.7 nM"),
    ("C=CCn1c(=O)c2cnc(Nc3ccc(N4CC5CCC(C4)O5)cc3)nc2n1-c1cccc(N=S(C)(C)=O)n1 [Example 36]", "Wee-1 kinase (Homo sapiens (Human), UniProt P30291)", "0.1 nM"),
    ("C=CCn1c(=O)c2cnc(Nc3ccc(N(C)CCOC)cc3)nc2n1-c1cccc(N=S(C)(C)=O)n1 [Example 89]", "Wee-1 kinase (Homo sapiens (Human), UniProt P30291)", "0.2 nM"),
    ("C=CCn1c(=O)c2cnc(Nc3ccc(N4CCOCC4)cc3)nc2n1-c1cccc(CN=S(C)(C)=O)n1 [Example 91]", "Wee-1 kinase (Homo sapiens (Human), UniProt P30291)", "22.1 nM"),
    ("CC(C)n1c(=O)c2cnc(Nc3ccc(N(C)C)cc3)nc2n1-c1cccc(N=S(C)(C)=O)n1 [Example 58]", "Wee-1 kinase (Homo sapiens (Human), UniProt P30291)", "0.4 nM"),
    ("C=CCn1c(=O)c2cnc(Nc3ccc(N(C)C)cc3)nc2n1-c1cccc(N=S(C)(C)=O)n1 [Example 57]", "Wee-1 kinase (Homo sapiens (Human), UniProt P30291)", "0.2 nM"),
    ("C=CCn1c(=O)c2cnc(Nc3ccc(C4CCNCC4)cc3)nc2n1-c1cccc(N=S(C)(C)=O)n1 [Example 13]", "Wee-1 kinase (Homo sapiens (Human), UniProt P30291)", "1.2 nM"),
    ("C=CCn1c(=O)c2cnc(Nc3ccc(N4CCOCC4)cc3)nc2n1-c1cccc(N=S(C)(C)=O)c1 [Example 31]", "Wee-1 kinase (Homo sapiens (Human), UniProt P30291)", "1.4 nM"),
]
